System: human SMAD7 mRNA
Experiment: Antisense inhibition of human SMAD7 mRNA expression in Hep3B cells by 3-10-3 cEt gapmers, 10,000 nM, electroporation (Example 2)
Format: cell-based
Conditions: Hep3B cells, electroporation, 10,000 nM antisense oligonucleotide, approximately 24 hours, RTS5062, relative to untreated control cells
Strand notation (5' to 3'): a small letter for the sugar, then the base; units joined by * are phosphorothioate-linked, units joined directly phosphodiester-linked; [ ] holds rarer units or linkages, { } end groups; capitals alone tell only the bases. k = constrained ethyl (cEt); [5mC] = 5-methylcytosine; d = 2'-deoxy (DNA)
property_name: % inhibition of SMAD7 mRNA expression (%)
Express your answer in %, writing the number without its unit.

Hey, human SMAD7 mRNA data for 799288 (antisense kT*kA*kA*dT*dG*dG*dT*d[5mC]*dT*dG*d[5mC]*dT*d[5mC]*kA*kG*kG) [compound 799288] : % inhibition of SMAD7 mRNA expression came out at 23

Observed % inhibition of SMAD7 mRNA expression on human SMAD7 mRNA, entry 799771 (kG*k[5mC]*kA*dT*dA*dT*dG*d[5mC]*d[5mC]*dA*d[5mC]*dT*dG*kA*kG*kA; antisense) [compound 799771] , equals 0

Let me check: 799640 (k[5mC]*kA*kA*dG*dG*dA*d[5mC]*d[5mC]*dT*dG*dT*dT*d[5mC]*kT*kG*kG; antisense) [compound 799640] , system human SMAD7 mRNA, measured % inhibition of SMAD7 mRNA expression is 40
